B1: DVL3 (parent)
chain: FPELGYSYGGGSASSQHSEGSRSS

Variants of: B1
assay_comment: protein stability index of a GFP-peptide fusion (GPS, HEK-293T) (PSI 1-6); higher = more stable;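 note: lentivirally expressed fusions sorted by FACS into six bins by GFP to DsRed ratio, PSI derived from sequencing read proportions per bin multiplied by bin number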
assay_context: c terminus: a fixed tail appended
outcome_measure: protein stability index
Please respond with just the number, no unit label.

mutation_name	protein stability index
G9H	2.93

# protein stability index (variant: `S18T` ) is 3.3

# protein stability index (variant: `G20T` ) is 3.42
